Quick record: pKi, human β1 Adrenoreceptor (Homo sapiens).
Remember the convention: pKi equals -log10 of concentration in molar.

COc1c(I)cc(CC2NCCc3cc(O)ccc32)cc1I (stereo not drawn) [drawing 83]; 6.56

Here's the next entry for you.
Query: Find the recorded pKi belonging to [N-]=[N+]=Nc1ccc(CC2NCCc3cc(O)c(O)cc32)cc1I (stereo not drawn) and report it.
Reply: 7.85

====

# TARGET OR SYSTEM: Human β1-AR (Homo sapiens)
# Sequence (P08588 whole entry): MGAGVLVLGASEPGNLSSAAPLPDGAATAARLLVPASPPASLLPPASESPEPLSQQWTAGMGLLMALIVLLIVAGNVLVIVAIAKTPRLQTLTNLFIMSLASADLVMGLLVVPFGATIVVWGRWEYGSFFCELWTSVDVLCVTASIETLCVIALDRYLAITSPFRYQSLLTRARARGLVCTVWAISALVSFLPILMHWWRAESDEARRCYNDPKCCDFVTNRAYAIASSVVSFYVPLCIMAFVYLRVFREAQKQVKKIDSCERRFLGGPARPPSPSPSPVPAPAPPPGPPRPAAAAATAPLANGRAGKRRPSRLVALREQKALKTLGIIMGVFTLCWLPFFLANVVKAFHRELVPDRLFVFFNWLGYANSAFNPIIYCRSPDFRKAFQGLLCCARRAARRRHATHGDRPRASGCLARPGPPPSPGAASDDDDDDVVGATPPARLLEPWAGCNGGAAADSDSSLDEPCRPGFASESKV
# MEASUREMENT NOTES: CRE-luciferase reporter gene (CRE-LUC) assay, CHO cells expressing human β1-AR
MEASURED PARAMETER: EC50 (nM)
Give just the numeric value; nM need not be written.

Query: Kindly state the measured EC50 obtained for COc1c(I)cc(CC2NCCc3cc(O)ccc32)cc1I (stereo not shown) [6-Monophenolic TMQ analog (A-4)] with Human β1-AR (Homo sapiens).
Reply: 1950
